System: Plasmodium falciparum
Assay: GSK_TCMDC: Inhibition of Plasmodium falciparum 3D7 in whole red blood cells, using parasite LDH activity as an index of growth. Test compounds present at 2uM
Format: functional
ASSAY READOUT: Inhibition (%)
Give just the numeric value; % need not be written.

For the molecule Cc1cccc2nc(-c3ccc(-c4ccc(CN5CCCC5CN)cc4)cc3)[nH]c12.O=C(O)C(F)(F)F (stereo not given) , report Inhibition. 99

For the molecule Cl.Oc1cccc(-c2nc3cc(C4=NC5CCCCC5N4)ccc3[nH]2)c1 (stereo not given) , report Inhibition. 98

For the molecule `COc1cc2c(cc1CCNCCCCNCCc1cc3c(cc1OC)CCCC3)CCCC2.CS(=O)(=O)O` , report Inhibition. 100

For the molecule `O=C1NC(=S)N/C1=C/C=C/c1ccc([N+](=O)[O-])o1` , report Inhibition. 82

For the molecule CC(CCCCC(=O)Nc1ccc(C(F)(F)F)cc1)NCC(O)c1cccc(Cl)c1 (stereo not given) , report Inhibition. 99

For the molecule `CCOc1ccccc1CON1C(N)=NC(N)=NC1(C)C` , report Inhibition. 90

For the molecule `COc1cccc(NC(=O)c2nc(N3CCN(c4ccncc4)CC3)ccc2Cl)c1.O=C(O)C(F)(F)F` , report Inhibition. 97

For the molecule `COc1ccc2nccc([C@@H](O)CN3CCC(NCc4nc5ccc(F)cc5[nH]4)CC3)c2c1.O=C(O)C(=O)O` , report Inhibition. 100

For the molecule COc1ccc(OC)c(-c2ccc(O)c(CNCC(C)c3ccccc3)c2)c1 (stereo not given) , report Inhibition. 98

For the molecule `COc1cc(NC(=O)c2cccs2)c(C(=O)NCc2ccc(C)cc2)cc1OC` , report Inhibition. 93

---

Tested on: Plasmodium falciparum
Experiment: GSK_TCMDC: Inhibition of Plasmodium falciparum Dd2 in whole red blood cells, using parasite LDH activity as an index of growth. Test compounds present at 2uM
Format: functional
# binning rule on Inhibition: band A (below 30%), band B (30% to below 80%), band C (80% or more)

Bin this entry: `CCCc1cc(=O)[nH]c(-n2nc(C)cc2NC(=O)c2cc3ccccc3o2)n1` band B

Bin this entry: `Cc1ccc(NC(=O)N2CCC(n3c(-c4ccccc4)nc4cccnc43)CC2)cc1F` band C

Bin this entry: `Cc1ccc2nc(C)cc(N/N=C/c3ccc([N+](=O)[O-])o3)c2c1` band C

Bin this entry: `COc1ccc(NC(=O)/C=C/c2cc(Br)ccc2F)cc1OCCN(C(C)C)C(C)C.O=C(O)C(F)(F)F` band A

Bin this entry: `CC(=O)Nc1ccc(C(=O)Nc2cccc(-c3cccc(-c4nc5cccc(C)c5[nH]4)c3)c2)cn1` band C

Bin this entry: CC(C)(C)c1ccc(CN2CCCCC(NC(=O)c3cc(-c4cccc(Cl)c4)cs3)C2)cc1.O=C(O)C(F)(F)F (stereo not drawn) band B

Bin this entry: `CCCCNC(=O)c1cc(CNC2CCCCC2)ccc1-c1cccc(CNCc2ccc(-c3ccccc3)cc2)c1.O=C(O)C(F)(F)F` band C

Bin this entry: CC(CCCCC(=O)Nc1ccc(CC(C)NCCc2cccc(Cl)c2)cc1)NCCc1cccc(Cl)c1 (stereo not drawn) band A

Bin this entry: `CN(C)CCCNCc1ccc(-c2ccc(CNCCc3ccccc3)cc2)cc1.O=C(O)C(F)(F)F` band C

Bin this entry: `Cc1cc(-c2ccc(O)c(CNC3CCCCC3)c2)cnc1N` band C

Bin this entry: `COc1ccc(CCn2c(=N)c(C(=O)NC3CCCC3)cc3c(=O)n4ccccc4nc32)cc1` band B

Bin this entry: O=C1Nc2cccc3c2C1(CCCCCN1CCC(c2c[nH]c4ccncc24)CC1)CCC3 (stereo not drawn) band A

Bin this entry: `Cc1cc(N)nc2ccc(-c3cccc(CN)c3)cc12` band B

Bin this entry: `CCCCCCN1CCC(NCc2cccc([N+](=O)[O-])c2)CC1.O=C(O)C(F)(F)F` band A

Bin this entry: `CC(C)(CN1CCCC1)CN(Cc1ccc(-c2ccc(C(F)(F)F)cc2)cc1)C(=O)Cn1c(CCc2cccc(F)c2F)nc(=O)c2ccccc21.O=C(O)C(O)C(O)C(=O)O` band B

Bin this entry: `CN1CCN(CCCN(Cc2csc(-c3ccc(CNCc4ccccc4)cc3)n2)C(=O)Nc2ccc3ccccc3c2)CC1.O=C(O)C(F)(F)F` band B

Bin this entry: `COc1cc(NC(=O)c2cccc([N+](=O)[O-])c2)cc(S(=O)(=O)c2ccc(Cl)cc2)c1` band A

Bin this entry: CNC(=O)c1cnc(Nc2ccc(OCC(O)CN(C)C)cc2)nc1Nc1cccc([N+](=O)[O-])c1.O=C(O)C(F)(F)F (stereo not drawn) band C

---

Tested on: Plasmodium falciparum
Experiment: GSK_TCMDC: Inhibition of Plasmodium falciparum Dd2 in whole red blood cells, using parasite LDH activity as an index of growth. Test compounds present at 2uM
Assay type: functional
Outcome: true for Inhibition of at least 70%; false for anything lower.

# bool: Inhibition of `NC(=O)c1ccsc1NC(=O)CNC(c1ccccc1)c1ccccc1` >= 70% false

# bool: Inhibition of CCC(C)(C)NC(=O)C(c1cccc(OC)c1)N(C(=O)CNC(=O)c1cccs1)c1ccc2c(c1)OCCO2 (centres undefined) >= 70% true

# bool: Inhibition of `CC(C)c1ccc(NC(=O)Nc2ccc(Cn3ncc(N4CCCNCC4)c(Cl)c3=O)cc2)cc1.O=C(O)C(F)(F)F` >= 70% false

# bool: Inhibition of `Nc1cccc(-c2ccc3ccnc(N)c3c2)c1` >= 70% false

# bool: Inhibition of CS(=O)(=O)O.NC1=NC(CCc2ccccc2)N(c2ccccc2)C(N)=N1 (centres undefined) >= 70% false

# bool: Inhibition of `COc1ccc(-c2ccc(CNCc3ccsc3)cc2)cc1S(=O)(=O)NCCN1CCCC1.O=C(O)C(F)(F)F` >= 70% false

# bool: Inhibition of `O=C(NC1CC1)c1cnc(N2CCC(COc3cccc(F)c3)CC2)c(Cl)c1` >= 70% true

# bool: Inhibition of `O=C(/C=C/c1ccc(Cl)c(Cl)c1)NCCCCCCN1CCCN(C(=O)Nc2ccc(Cl)c(Cl)c2)CC1` >= 70% false

# bool: Inhibition of COc1cc(Cc2cnc(N)nc2N)cc(OCCCCC2SC(=O)NC2=O)c1OC (centres undefined) >= 70% false

---

Test system: Plasmodium falciparum
Assay: GSK_TCMDC: Inhibition of Plasmodium falciparum Dd2 in whole red blood cells, using parasite LDH activity as an index of growth. Test compounds present at 2uM
Type: functional
ASSAY READOUT: Inhibition (%)
Give just the numeric value; % need not be written.

// output Inhibition; input `Cc1c(C)n(Cc2ccccc2)c2ncnc(OC3CCN(CC(=O)NCC4CC4)CC3)c12` ; system Plasmodium falciparum 79

// output Inhibition; input CC(C)c1ccc(NC(=O)NCCCC2CCCN(CCCCCNC(=O)/C=C/c3ccc(Cl)c(Cl)c3)C2)cc1 (stereo not given) ; system Plasmodium falciparum 42

// output Inhibition; input CN(C)Cc1cccc(-c2ccc(Nc3nccc(NCC(O)c4ccccc4)n3)cc2)c1 (stereo not given) ; system Plasmodium falciparum 77

// output Inhibition; input `Cl.FC(F)(F)c1ccc2c(NCCCNc3ccnc4cc(C(F)(F)F)ccc34)ccnc2c1` ; system Plasmodium falciparum 100

// output Inhibition; input `O=C(NC1CCN(CCN2CCc3ccccc3CC2)CC1)c1ccc(-c2ccc(C(F)(F)F)cc2)cc1` ; system Plasmodium falciparum 43

---

Test system: Plasmodium falciparum
Experiment: GSK_TCMDC: Inhibition of Plasmodium falciparum Dd2 in whole red blood cells, using parasite LDH activity as an index of growth. Test compounds present at 2uM
Assay type: functional
Field: Inhibition. Provide a value for each of the compounds that follow.
Give just the numeric value; % need not be written.

For the compound `Nc1cccc(CNCc2cccc(-c3cccc(-c4nc5ccccc5[nH]4)c3)c2)c1.O=C(O)C(F)(F)F` , report Inhibition. 84

For the compound `O=C(O)C(F)(F)F.O=S(=O)(NCCN1CCCC1)c1cccc(-c2ccc(CNCc3ccsc3)cc2)c1` , report Inhibition. 31

For the compound `CN1CCN(c2ccc3nccc(CCN4CCC(NCc5ccc6c(n5)NC(=O)CO6)CC4)c3n2)CC1.Cl` , report Inhibition. 3

For the compound `COc1ccc2nccc([C@@H](O)CN3CCC(NC(=O)/C=C/c4ccnc5ccccc45)CC3)c2c1` , report Inhibition. 12

For the compound `O=[N+]([O-])c1cccc(NC(=S)N2CCCN(Cc3ccc(C(F)(F)F)cc3)CC2)c1` , report Inhibition. 49

For the compound `Clc1ccc2c(NCc3ccccn3)ccnc2c1` , report Inhibition. 99

For the compound `O=C1c2ccccc2C(=O)N1CCOc1c(Br)cc(Br)cc1CNCCCNc1cc(=O)c2ccccc2[nH]1` , report Inhibition. 12

For the compound `CCc1sc(N2CCN(C)CC2)nc1C(=O)NCCc1ccc(Cl)c(Cl)c1.O=C(O)C(F)(F)F` , report Inhibition. 49

For the compound COc1ccc(CC2(c3ccc(F)cc3)N=C(N)N(CCCc3ccccc3)C2=O)cc1.O=C(O)C(F)(F)F (centres undefined) , report Inhibition. 97

For the compound `Fc1cccc(COc2ccc(Nc3ncnc4sc(C#CCNC5CCC5)cc34)cc2Cl)c1` , report Inhibition. 73

For the compound `Cc1noc(C)c1-c1cccc(CNCc2cccc(-c3ccc(-c4nc5cccc(C)c5[nH]4)cc3)c2)c1.O=C(O)C(F)(F)F` , report Inhibition. 69

For the compound `CCOC(=O)c1c(C)n(-c2ccccc2)c2ccc(OC(=O)c3ccc(S(=O)(=O)N(CC)CC)cc3)cc12` , report Inhibition. 63

For the compound COc1cccc(-c2ccc(NC(=O)C3CCCN(Cc4cccc(OC)c4O)C3)cc2)c1 (centres undefined) , report Inhibition. 78

For the compound `Br.NCC(=O)NC12CC3CC(CC(C3)C1)C2` , report Inhibition. 0

For the compound `Cc1cc(NC(=O)Nc2cccc(Cl)c2Cl)c2ccccc2n1` , report Inhibition. 25

For the compound `CCn1c(CN2CCC(C)CC2)nc2cc(NC(=O)c3cccs3)ccc21` , report Inhibition. 95

For the compound CC1(C)CC(NC(=O)NC2CCN(Cc3ccccc3)CC2)CC(C)(CNC(=O)NC2CCN(Cc3ccccc3)CC2)C1 (centres undefined) , report Inhibition. 2

For the compound `COc1ccc(-c2ccc(NC(=O)c3cccc(Cl)c3)cc2)cc1CNC(C)C.O=C(O)C(F)(F)F` , report Inhibition. 88

For the compound `Cc1ccccc1-c1nc2c(CN3CCC(O)(c4ccccc4)CC3)c(O)ccc2[nH]1` , report Inhibition. 61

The measurements presented in this section are drawn from ChEMBL document CHEMBL1157539.
